Test system: SARS-CoV-2
Assay procedure: microbe, parasite or virus in culture
Run conditions: Severe acute respiratory syndrome coronavirus 2, HeLa-ACE2, read-out: SARS CoV-2 EC50 (μM)
Where a name gives a salt, the structure may show the parent alone.
// returns n unless EC50 is strictly below 1 µM, in which case y

Completed entries (count: 10):
CCOC(=O)[C@@H]1O[C@H]1C(=O)N[C@@H](CC(C)C)C(=O)N1CCN(Cc2ccc(OC)c(OC)c2OC)CC1 | y
CCN(CC)CCCNc1ccnc2cc(Cl)ccc12 | y
CCCCN(CCCC)CCC(O)c1cc2c(Cl)cc(Cl)cc2c2cc(C(F)(F)F)ccc12 (centres unmarked) [Halofantrine HCl] | n
CCN(CCO)CCCC(C)Nc1ccnc2cc(Cl)ccc12 (centres unmarked) [hydroxychloroquine, nasal, hydroxychloroquine] | y
Nc1cc(OCC2CC2)c(C(=O)NC2CN3CCC2CC3)cc1Cl (centres unmarked) [Pancopride] | n
CCN1CCC(c2cc(C)c3nc(-c4cc5c(C)nc(C)cn5n4)cc(=O)n3c2)CC1 | n
CCCCN1CC[C@H](c2ccc(N(C)C)cc2)[C@@H](COc2ccc(C(F)(F)F)cc2)C1 | n
CCC(CC)COC(=O)[C@H](C)N[P@](=O)(OC[C@H]1O[C@@](C#N)(c2ccc3c(N)ncnn23)[C@H](O)[C@@H]1O)Oc1ccccc1 | y
COC(=O)C1=C(C)NC(C)=C(C(=O)OC)C1c1cc([N+](=O)[O-])ccc1OCCCCNC[C@H](O)COc1ccccc1 | n
Nc1nc(Nc2ccc3c(c2)CC[C@@H](N2CCCC2)CC3)nn1-c1cc2c(nn1)-c1ccccc1CCC2 | n

Now turn to the next molecule.
Item `Cc1cccc(/C=N/Nc2cc(N3CCOCC3)nc(OCCc3ccccn3)n2)c1` : EC50 beneath 1 µM, strictly?
y
